Data origin, for the record: patent US8318667B2

The following compounds have recorded log10(IC50) on human glucagon receptor (Homo sapiens, UniProt P47871).
Sequence (P47871 26-477): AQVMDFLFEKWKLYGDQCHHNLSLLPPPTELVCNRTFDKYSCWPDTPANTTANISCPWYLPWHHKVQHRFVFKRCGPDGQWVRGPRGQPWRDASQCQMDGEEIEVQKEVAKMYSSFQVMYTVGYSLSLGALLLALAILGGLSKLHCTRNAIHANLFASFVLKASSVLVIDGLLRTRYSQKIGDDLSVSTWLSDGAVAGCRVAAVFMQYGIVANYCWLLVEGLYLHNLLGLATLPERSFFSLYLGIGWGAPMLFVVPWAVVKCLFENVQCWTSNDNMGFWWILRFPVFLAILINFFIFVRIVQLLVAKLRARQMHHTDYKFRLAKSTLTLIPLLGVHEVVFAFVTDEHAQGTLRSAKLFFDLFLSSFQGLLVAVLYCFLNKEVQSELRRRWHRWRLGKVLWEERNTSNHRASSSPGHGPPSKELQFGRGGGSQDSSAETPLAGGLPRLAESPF
Reminder: these figures are log10 of reported IC50, in nM before transformation.

input: # query: log10(IC50) of entry CCCC(c1ccc(C(=O)NCCC(=O)O)cc1)C(c1ccc(Cl)cc1)c1n[nH]c2c(F)cc(-c3cccc(F)c3)cc12 (racemic) [Example 24]
output: 0.23

input: Record: CCCC(c1ccc(C(=O)NCCC(=O)O)cc1)C(c1ccc(Cl)cc1)c1n[nH]c2c(Cl)cc(C(F)(F)F)cc12 (single isomer, unassigned) [Example 6]
output: -0.70

input: Record: CCCC(c1ccc(C(=O)NCCC(=O)O)cc1)C(c1ccc(Cl)cc1)c1nn(C)c2ccc(C(F)(F)F)cc12 (single isomer, unassigned) [Example 9]
output: 0.00

input: Record: CCCC(c1ccc(C(=O)NCCC(=O)O)cc1)C(c1ccc(Cl)cc1)c1n[nH]c2c(Cl)cc(Cl)cc12 (single isomer, unassigned) [Example 8]
output: -0.40

input: Record: CCCC(c1ccc(C(=O)NCCC(=O)O)cc1)C(c1ccc(Cl)cc1)c1n[nH]c2c(F)cc(-c3ccc(C)cc3)cc12 (single isomer, unassigned) [Example 21]
output: 0.41

input: Record: CCCC(c1ccc(C(=O)NCCC(=O)O)cc1)C(c1ccc(Cl)cc1)c1n[nH]c2ccc(C(F)(F)F)cc12 (single isomer, unassigned) [Example 5]
output: -0.10

More entries:
input: # query: log10(IC50) of entry CCCC(c1ccc(C(=O)NCCC(=O)O)cc1)C(c1ccc(Cl)cc1)c1c2cc(C(F)(F)F)ccc2nn1C (single isomer, unassigned) [Example 13]
output: 0.52

input: Record: CCCC(c1ccc(C(=O)NCCC(=O)O)cc1)C(c1ccc(Cl)cc1)c1c2cc(C(F)(F)F)cc(Cl)c2nn1-c1ccccc1 (single isomer, unassigned) [Example 3]
output: 1.57
